Tested on: Danio rerio larvae (5 dpf)
Experiment: excitability to 1-s acoustic pulses, difference vs DMSO (percentage points (treated minus DMSO)); higher = more of the behaviour than the DMSO vehicle control
Settings: 10 µM; exposure time: 3 h pre-incubation + 3 h imaging

[
  {
    "compound": "Nc1nc(F)nc2c1ncn2[C@@H]1O[C@H](CO)[C@@H](O)[C@@H]1O",
    "excitability to 1-s acoustic pulses": 3.42
  },
  {
    "compound": "CC(C)[C@H]1CC[C@H](C(=O)N[C@H](Cc2ccccc2)C(=O)O)CC1 [Nateglinide]",
    "excitability to 1-s acoustic pulses": 1.64
  },
  {
    "compound": "CCC(=O)O[C@]1(C(=O)SCF)[C@H](C)C[C@H]2[C@@H]3C[C@H](F)C4=CC(=O)C=C[C@]4(C)[C@@]3(F)[C@@H](O)C[C@@]21C [Fluticasone propionate]",
    "excitability to 1-s acoustic pulses": 1.18
  },
  {
    "compound": "NS(=O)(=O)c1cc2c(cc1Cl)NC(C1CC3C=CC1C3)NS2(=O)=O (configuration not stated) [Cyclothiazide]",
    "excitability to 1-s acoustic pulses": 0.586
  },
  {
    "compound": "CCCC1O[C@@H]2C[C@H]3[C@@H]4CCC5=CC(=O)C=C[C@]5(C)[C@H]4[C@@H](O)C[C@]3(C)[C@]2(C(=O)CO)O1 (some centres not stated) [Budesonide]",
    "excitability to 1-s acoustic pulses": -1.66
  },
  {
    "compound": "COc1cc2ncnc(Nc3ccc(F)c(Cl)c3)c2cc1OCCCN1CCOCC1",
    "excitability to 1-s acoustic pulses": 18
  },
  {
    "compound": "COc1cc([C@@H]2c3cc4c(cc3[C@@H](O[C@@H]3O[C@@H]5CO[C@@H](C)O[C@H]5[C@H](O)[C@H]3O)[C@H]3COC(=O)[C@H]23)OCO4)cc(OC)c1O [Etoposide]",
    "excitability to 1-s acoustic pulses": 9.69
  }
]

* * *

Test system: Danio rerio larvae (5 dpf)
Assay: optomotor response to fast red moving lines, difference vs DMSO (percentage points (treated minus DMSO)); higher = more of the behaviour than the DMSO vehicle control
Details: 10 µM; exposure time: 3 h pre-incubation + 3 h imaging
Structures can show the parent of a compound that is named as a salt.

[
  {
    "compound": "CCc1c2c(nc3ccc(OC(=O)N4CCC(N5CCCCC5)CC4)cc13)-c1cc3c(c(=O)n1C2)COC(=O)[C@]3(O)CC",
    "measurement target": "Danio rerio larvae (5 dpf)",
    "optomotor response": 0.47
  },
  {
    "compound": "CCc1nc(N)nc(N)c1-c1ccc(Cl)cc1 [Pyrimethamine]",
    "measurement target": "Danio rerio larvae (5 dpf)",
    "optomotor response": 9.74
  },
  {
    "compound": "COc1cc2nc(N3CCN(C(=O)C4COc5ccccc5O4)CC3)nc(N)c2cc1OC (centres undefined) [Doxazosin mesylate]",
    "measurement target": "Danio rerio larvae (5 dpf)",
    "optomotor response": -4.8
  },
  {
    "compound": "O=C(O)c1cc(/N=N/c2ccc(S(=O)(=O)Nc3ccccn3)cc2)ccc1O [Sulfasalazine]",
    "measurement target": "Danio rerio larvae (5 dpf)",
    "optomotor response": -5.17
  }
]
